Every entry's value here was drawn from the supplement of paper PMC4862054.

Entries and their normalised response values follow.
Test system: HCC1599
Assay: normalised response (% of control), CellTiter-Glo; higher = more viable cells (100 = DMSO, 0 = benzethonium chloride kill control)
Details: incubation time: 72 h
measured.metric: normalised response (%)

| compound | measured.metric | measure.unit | value.reported |
| --- | --- | --- | --- |
| CC(C)C(=O)Nc1ccc([N+](=O)[O-])c(C(F)(F)F)c1 [Flutamide] (10 nM) | normalised response | % | 105 |
| CC[C@H](CC#N)OC(=O)N[C@@H](C)c1cccc(NC(=O)Nc2ccc(-c3cnco3)c(OC)c2)c1 [AVN944] (1000 nM) | normalised response | % | 48.1 |
| CO[C@H]1C[C@@H]2CC[C@@H](C)[C@@](O)(O2)C(=O)C(=O)N2CCCC[C@H]2C(=O)O[C@H]([C@H](C)C[C@@H]2CC[C@@H](O)[C@H](OC)C2)CC(=O)[C@H](C)/C=C(\C)[C@@H](O)[C@@H](OC)C(=O)[C@H](C)C[C@H](C)/C=C/C=C/C=C/1C [Sirolimus] (10 nM) | normalised response | % | 98.8 |
